The measured values listed here are drawn from patent US12595253B2.

Biological target: JAK2V617F (Homo sapiens, UniProt O60674, V617F)
Sequence (O60674 whole entry V617F): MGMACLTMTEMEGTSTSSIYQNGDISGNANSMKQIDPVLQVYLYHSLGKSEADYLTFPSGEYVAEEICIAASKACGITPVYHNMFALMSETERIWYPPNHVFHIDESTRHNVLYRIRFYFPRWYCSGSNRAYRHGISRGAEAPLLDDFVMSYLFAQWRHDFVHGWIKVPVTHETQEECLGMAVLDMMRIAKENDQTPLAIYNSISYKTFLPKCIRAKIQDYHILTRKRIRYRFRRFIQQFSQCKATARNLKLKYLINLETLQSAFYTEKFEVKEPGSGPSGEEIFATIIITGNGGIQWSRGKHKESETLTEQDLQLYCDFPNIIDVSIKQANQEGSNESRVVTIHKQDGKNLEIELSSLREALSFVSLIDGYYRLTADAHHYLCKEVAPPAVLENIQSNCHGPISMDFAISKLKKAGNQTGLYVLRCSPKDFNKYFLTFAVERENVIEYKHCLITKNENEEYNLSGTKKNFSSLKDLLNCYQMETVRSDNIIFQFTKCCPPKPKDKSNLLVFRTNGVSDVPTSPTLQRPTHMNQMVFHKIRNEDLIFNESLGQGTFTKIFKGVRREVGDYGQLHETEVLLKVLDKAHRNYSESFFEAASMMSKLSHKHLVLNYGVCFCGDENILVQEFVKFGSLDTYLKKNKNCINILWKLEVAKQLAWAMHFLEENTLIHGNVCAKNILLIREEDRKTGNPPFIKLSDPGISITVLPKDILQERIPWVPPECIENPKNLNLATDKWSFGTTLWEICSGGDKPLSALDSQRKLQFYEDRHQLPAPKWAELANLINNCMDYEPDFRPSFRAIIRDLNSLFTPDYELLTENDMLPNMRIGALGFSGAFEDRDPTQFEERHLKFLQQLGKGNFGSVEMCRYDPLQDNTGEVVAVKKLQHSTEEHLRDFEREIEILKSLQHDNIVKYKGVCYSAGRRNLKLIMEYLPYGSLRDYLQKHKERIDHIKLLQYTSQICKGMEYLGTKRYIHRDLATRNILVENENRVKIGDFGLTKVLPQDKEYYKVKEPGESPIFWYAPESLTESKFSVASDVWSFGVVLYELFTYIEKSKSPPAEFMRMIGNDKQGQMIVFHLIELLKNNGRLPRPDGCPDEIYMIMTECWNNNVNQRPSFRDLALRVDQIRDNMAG
Test: JAK2V617F microfluidic kinase assay (Caliper EZ Reader II, FAM labeled peptide substrate)
Conditions: JAK2V617F 2.5 nM, 1 mM ATP
property-measured: IC50 (nM)

Recorded results for 8 molecules are shown here.
>>> recorded_number("N#CCNC(=O)c1ccc(-c2nc(Nc3cnn(C4CC4)c3)ncc2C(F)F)cc1 [Example 110]")
556
>>> recorded_number("Cc1cnc(Nc2cnn(C3CCCCC3)c2)nc1-c1ccc(C(=O)N[C@@H](C)C#N)cc1 [Example 89]")
10.1
>>> recorded_number("C[C@@H](C#N)NC(=O)c1ccc(-c2nc(Nc3cnn(CC#N)c3)ncc2Cl)cc1 [Example 46]")
53.5
>>> recorded_number("Cc1cnc(Nc2cnn(C3CCOCC3)c2)nc1-c1ccc(C(=O)N[C@@H](C)C#N)cc1 [Example 144]")
30.1
>>> recorded_number("Cc1cnc(Nc2cnn(C3CCN(C(=O)C4CC4(F)F)CC3)c2)nc1-c1ccc(C(=O)NCC#N)cc1 (centres unmarked) [Example 145]")
6.97
>>> recorded_number("C[C@@H](C#N)NC(=O)c1ccc(-c2nc(Nc3cnn(C4CC4)c3)ncc2Cl)cn1 [Example 121]")
245
>>> recorded_number("Cc1cnc(Nc2cnn(C3CC3)c2)nc1-c1ccc(C(=O)N[C@H](C#N)C(C)C)cc1 [Example 197]")
27.6
>>> recorded_number("CC[C@@H](C#N)NC(=O)c1ccc(-c2nc(Nc3cnn(C4CCN(C)CC4)c3)ncc2F)cc1 [Example 59]")
136

1. Cc1cnc(Nc2cnn(CC#N)c2)nc1-c1ccc(C(=O)NCC#N)cc1 [Example 4]
2. CC(C)(C#N)CNC(=O)c1ccc(-c2nc(Nc3cnn(C4CC4)c3)ncc2Cl)cc1 [Example 123]
Input: Name the one with the greater IC50 value, either 1 or 2 as given. Identify your selection by its label.
Output: 1

A. Cc1cnc(Nc2cnn(C3CCN(C(=O)C4(C(F)(F)F)CC4)CC3)c2)nc1-c1ccc(C(=O)NCC#N)cc1 [Example 115]
B. Cc1cnc(Nc2cnn([C@H]3CC[C@H](C#N)CC3)c2)nc1-c1ccc(C(=O)NCC(F)(F)F)cc1 [Example 87]
Input: Compare A and B by numeric IC50 and name the larger one. Give the label of your selection.
Output: A
(A: 2.06 nM, B: 0.65 nM)
